targetOrTestSystem: HEK-293 cells transfected with dox-inducible human wild type FGFR3 (Homo sapiens (Human))
experimentNotes: FGFR3 pFGFR cell assay (ELISA)
Format: cell-based
recordedConditions: HEK-293 dox-inducible FGFR3, 1 hour compound, 100 ng/ml FGF-acidic
pIC50: −log10 of the molar value.
readoutName: pIC50

INSERT INTO results (smilesrecord, readoutname, obsvalue) VALUES
  ('C=CS(=O)(=O)N[C@H]1CC[C@H](C(=O)N2CCC(n3cc(-c4cc(OC)c5c(C#N)cnn5c4)cn3)CC2)C1', 'pIC50', 7.49),
  ('C=CC(=O)Nc1cccc(C(=O)N2CCC[C@@H](n3cc(-c4cc(OC)c5c(C#N)cnn5c4)cn3)C2)c1', 'pIC50', 6.36),
  ('C=CC(=O)N1CCC(C(=O)N2CCC(n3cc(-c4cc(OC)c5c(C#N)cnn5c4)cn3)CC2)CC1', 'pIC50', 6.62),
  ('C=CC(=O)Nc1ccc(C(=O)N2CCC(n3cc(-c4cc(OC)c5c(C#N)cnn5c4)cn3)CC2)cc1', 'pIC50', 7.24);

----------
targetOrTestSystem: HEK-293 cells transfected with dox-inducible human wild type FGFR3 (Homo sapiens (Human), UniProt P22607)
Sequence (P22607 23-806): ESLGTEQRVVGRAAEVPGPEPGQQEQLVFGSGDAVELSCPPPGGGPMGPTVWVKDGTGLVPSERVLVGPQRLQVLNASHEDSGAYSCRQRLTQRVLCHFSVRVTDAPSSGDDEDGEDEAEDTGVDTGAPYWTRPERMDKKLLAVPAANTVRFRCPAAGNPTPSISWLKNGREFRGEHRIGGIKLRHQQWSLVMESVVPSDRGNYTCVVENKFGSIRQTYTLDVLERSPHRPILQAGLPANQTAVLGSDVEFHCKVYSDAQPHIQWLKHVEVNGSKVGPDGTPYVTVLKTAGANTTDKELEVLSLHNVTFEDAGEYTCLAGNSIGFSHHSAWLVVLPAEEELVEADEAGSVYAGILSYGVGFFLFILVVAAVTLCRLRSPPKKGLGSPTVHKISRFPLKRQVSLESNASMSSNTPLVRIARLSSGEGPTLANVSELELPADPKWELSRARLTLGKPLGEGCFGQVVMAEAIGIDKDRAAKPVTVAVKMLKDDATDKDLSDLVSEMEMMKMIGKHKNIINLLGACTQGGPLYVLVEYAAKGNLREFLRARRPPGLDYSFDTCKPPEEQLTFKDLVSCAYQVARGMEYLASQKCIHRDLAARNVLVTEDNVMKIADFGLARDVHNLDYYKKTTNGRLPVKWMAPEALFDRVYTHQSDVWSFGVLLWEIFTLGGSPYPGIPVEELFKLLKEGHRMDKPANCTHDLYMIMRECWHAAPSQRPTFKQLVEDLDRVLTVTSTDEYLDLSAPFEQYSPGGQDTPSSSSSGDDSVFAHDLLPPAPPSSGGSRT
experimentNotes: FGFR3 pERK cell assay
Assay type: cell-based
recordedConditions: HEK-293 dox-inducible FGFR3, 1 hour compound, 100 ng/ml FGF-acidic; maximum concentration 5 μM
pIC50: −log10 of the molar value.
Answer condition not met if pIC50 is under 7, and condition met if it is 7 or more.

INSERT INTO assay_data (smilesrecord, cat) VALUES
  ('C=CC(=O)N1CC(OC)(C(=O)N2CCC(n3ncc(-c4cc(OC)c5c(C#N)cnn5c4)c3C)CC2)C1', 'condition met'),
  ('C=CC(=O)N1CC(F)(C(=O)N2CCC(n3ncc(-c4cc(OC)c5c(C#N)cnn5c4)c3CC)CC2)C1', 'condition not met'),
  ('C=CC(=O)N1CC(OC)(C(=O)N2CCC(n3cc(-c4cc(OC)c5c(C#N)cnn5c4)cn3)CC2)C1', 'condition met'),
  ('COc1cc(-c2cnn(C3CCN(C(=O)C4CN(C(=O)/C=C/CCl)C4)CC3)c2)cn2ncc(C#N)c12', 'condition met'),
  ('C=CC(=O)N1CC(C(=O)N2CCN(c3ccc(-c4cc(OC)c5c(C#N)cnn5c4)cc3)CC2)C1', 'condition met'),
  ('C=CC(=O)N1CC(C(=O)N2C[C@H]3C[C@@H]2CN3c2ccc(-c3cc(OC)c4c(C#N)cnn4c3)cn2)C1', 'condition not met'),
  ('COc1cc(-c2cnn(C3CCN(C(=O)C4CN(C(=O)/C=C/CN5CC[C@H](F)C5)C4)CC3)c2)cn2ncc(C#N)c12', 'condition not met');

----------
Entries and their IC50
targetOrTestSystem: recombinant human FGFR2 cytoplasmic domain (amino acids 403-822) (Homo sapiens (Human), UniProt P21802)
Sequence (P21802 402-821): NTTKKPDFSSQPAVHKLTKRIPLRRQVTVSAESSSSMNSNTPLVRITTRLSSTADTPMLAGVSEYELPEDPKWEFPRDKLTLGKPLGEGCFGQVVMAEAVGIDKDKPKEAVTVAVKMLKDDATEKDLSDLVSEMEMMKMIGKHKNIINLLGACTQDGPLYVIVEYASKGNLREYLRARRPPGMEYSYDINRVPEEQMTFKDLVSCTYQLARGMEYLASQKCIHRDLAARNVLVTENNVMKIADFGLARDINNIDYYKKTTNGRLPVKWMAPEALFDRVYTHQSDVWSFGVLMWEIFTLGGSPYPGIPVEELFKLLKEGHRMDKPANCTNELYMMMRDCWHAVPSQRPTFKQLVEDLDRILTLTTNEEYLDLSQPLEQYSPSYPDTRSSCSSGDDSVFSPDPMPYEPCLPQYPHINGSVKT
experimentNotes: FGFR2 enzyme activity assay (LanthaScreen TR-FRET)
recordedConditions: 15 μM ATP, 20 min incubation at 22° C., average of multiple determinations if made, read-out: FGFR2 Enz FRET IC50
Experimental: FGFR2 kinase activity was measured by the Invitrogen LanthaScreen™ Assay technology which directly measures the amount of substrate phosphorylation by TR-FRET using a fluorescently-labeled peptide and Europium-labeled antibody. […] After an additional 60 minute incubation at 22° C., the reaction was measured using a PerkinElmer EnVision multimode plate reader via TR-FRET dual wavelength detection, and the percent of control (POC) calculated using a ratiometric emission factor. […]
readoutName: IC50

INSERT INTO measurements (compound, obsvalue) VALUES
  ('C=CC(=O)N1CC(C(=O)N2CCC(n3cc(-c4cc(-c5ccccc5F)c5c(C#N)cnn5c4)cn3)CC2)C1', '10 nM'),
  ('C=CC(=O)N1CC(CN2CCC(n3ncc(-c4cc(OC)c5c(Cl)cnn5c4)c3C)CC2)C1(C)C (stereo not shown)', '39 nM'),
  ('C=CC(=O)N1CCC(F)(C(=O)N2CCC(n3cc(-c4cc(OC)c5c(C#N)cnn5c4)cn3)CC2)CC1', '2 nM'),
  ('C=CC(=O)Nc1ccc(C(=O)N2CC[C@H](n3cc(-c4cc(OC)c5c(C#N)cnn5c4)cn3)C2)cc1OC', '4 nM');

----------
targetOrTestSystem: recombinant human FGFR1 catalytic domain (amino acids 308-731) (Homo sapiens (Human))
Sequence (P11362 other isoform, or with tags, fused parts or gaps): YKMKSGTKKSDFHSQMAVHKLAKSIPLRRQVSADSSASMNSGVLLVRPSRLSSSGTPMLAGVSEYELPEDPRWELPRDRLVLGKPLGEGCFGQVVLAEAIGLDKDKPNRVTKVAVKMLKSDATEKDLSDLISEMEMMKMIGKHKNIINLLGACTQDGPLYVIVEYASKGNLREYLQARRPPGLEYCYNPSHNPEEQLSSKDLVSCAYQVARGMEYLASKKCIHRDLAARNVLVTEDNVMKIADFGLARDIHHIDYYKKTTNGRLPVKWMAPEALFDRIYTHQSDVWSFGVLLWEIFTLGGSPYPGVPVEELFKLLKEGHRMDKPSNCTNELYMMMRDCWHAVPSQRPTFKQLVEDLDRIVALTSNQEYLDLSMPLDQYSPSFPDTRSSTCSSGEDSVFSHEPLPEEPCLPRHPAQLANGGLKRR
experimentNotes: FGFR1 enzyme activity assay (LanthaScreen TR-FRET)
recordedConditions: 20 min incubation at 22° C., average of multiple determinations if made, read-out: FGFR1 Enz FRET IC50
pIC50: −log10 of the molar value.
Answer not satisfied if pIC50 is under 8, and satisfied if it is 8 or more.

INSERT INTO assay_data (compound, cat) VALUES
  ('C=CC(=O)N1CC(C(=O)N2CC3(C2)CN(c2ccc(-c4cc(OC)c5c(C#N)cnn5c4)cn2)C3)C1', 'not satisfied'),
  ('COc1cc(-c2c(C)nn(C3CCN(C(=O)C4(F)CN(C(=O)/C=C/CN(C)C)C4)CC3)c2C)cn2ncc(C#N)c12', 'not satisfied'),
  ('C=CC(=O)N[C@H]1CC[C@H](C(=O)N2CCC(n3cc(-c4cc(OC)c5c(C#N)cnn5c4)cn3)CC2)CC1', 'not satisfied'),
  ('C=CC(=O)N1CC(CN2CCC(n3ncc(-c4cc(OC)c5c(Cl)cnn5c4)c3C)CC2)C1(C)C (stereo not drawn)', 'not satisfied'),
  ('C=CC(=O)N1CCC(NC(=O)c2ccc(-c3cc(OC)c4c(C#N)cnn4c3)cc2)CC1', 'not satisfied'),
  ('C=CC(=O)Nc1cccc(C(=O)N2CC[C@@H](n3cc(-c4cc(OC)c5c(C#N)cnn5c4)cn3)C2)c1', 'not satisfied'),
  ('C=CC(=O)N1CC(C(=O)N2CCC3(CC2)CN(c2ccc(-c4cc(OC)c5c(C#N)cnn5c4)cn2)C3)C1', 'not satisfied'),
  ('C=CC(=O)N1CC(OC)(C(=O)N2CCC(n3ncc(-c4cc(OC)c5c(Cl)cnn5c4)c3C)CC2)C1', 'not satisfied'),
  ('C=CC(=O)N1CC(C)(C(=O)N2CCC(n3cc(-c4cc(OC)c5c(Cl)cnn5c4)cn3)CC2)C1', 'not satisfied'),
  ('C=CC(=O)NC1CCC(NC(=O)c2ccc(-c3cc(OC)c4c(C#N)cnn4c3)cc2)CC1 (stereo not drawn)', 'not satisfied'),
  ('COc1cc(-c2cnn(C3CCN(CC4CN(C(=O)/C=C/CN5CCCCC5)C4)CC3)c2)cn2ncc(C#N)c12', 'satisfied'),
  ('C=CC(=O)N[C@H]1C[C@H](C(=O)N2CC[C@H](n3cc(-c4cc(OC)c5c(C#N)cnn5c4)cn3)C2)C1', 'not satisfied'),
  ('C=CC(=O)N1CC(OC)(C(=O)N2CCC(n3cc(-c4cc(OC)c5c(C#N)cnn5c4)cn3)CC2)C1', 'satisfied');

----------
targetOrTestSystem: FGFR3 (SEQ ID NO: 5, amino acids 449-759) (Homo sapiens (Human), UniProt P22607)
Sequence (P22607 449-759): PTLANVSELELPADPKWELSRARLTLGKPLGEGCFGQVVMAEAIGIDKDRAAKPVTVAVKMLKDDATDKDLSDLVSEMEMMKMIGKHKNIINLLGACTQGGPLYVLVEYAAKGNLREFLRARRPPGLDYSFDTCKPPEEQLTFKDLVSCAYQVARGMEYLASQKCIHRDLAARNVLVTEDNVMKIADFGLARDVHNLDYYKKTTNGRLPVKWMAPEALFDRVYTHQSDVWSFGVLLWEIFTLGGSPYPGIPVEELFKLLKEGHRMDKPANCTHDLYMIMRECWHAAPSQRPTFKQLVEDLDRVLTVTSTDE
experimentNotes: LC/MS FGFR3 kobs assay (covalent protein modification)
Type: binding
recordedConditions: 500 nM FGFR3, 3 μM compound
readoutName: FGFR3 Enz kobs (min⁻¹)

INSERT INTO assay_data (smilesrecord, readoutname, unitabbrev, obsvalue) VALUES
  ('COc1cc(-c2cnn(C3CCN(C(=O)C4CN(C(=O)/C=C/CO)C4)CC3)c2)cn2ncc(C#N)c12', 'FGFR3 Enz kobs', 'min⁻¹', 0.00171),
  ('C=CC(=O)N[C@H]1C[C@H](C(=O)N2CCC(n3cc(-c4cc(OC)c5c(C#N)cnn5c4)cn3)CC2)C1', 'FGFR3 Enz kobs', 'min⁻¹', 0.00116),
  ('C=CC(=O)Nc1ccc(C(=O)N2CC[C@H](n3cc(-c4cc(OC)c5c(C#N)cnn5c4)cn3)C2)c(C)c1', 'FGFR3 Enz kobs', 'min⁻¹', 0.0095),
  ('C=CC(=O)N1CC(F)(C(=O)N2CCN(c3ccc(-c4cc(OC)c5c(C#N)cnn5c4)cn3)CC2)C1', 'FGFR3 Enz kobs', 'min⁻¹', 0.1108);

----------
targetOrTestSystem: phosphorylated FGFR3 (SEQ ID NO: 5, amino acids 449 to 759) (Homo sapiens (Human))
readoutName: IC50 (nM)

INSERT INTO measurements (smilesrecord, targetortestsystem, unitabbrev, obsvalue) VALUES
  ('C=CC(=O)N1CC(C(=O)N2CC(n3cc(-c4cc(OC)c5c(C#N)cnn5c4)cn3)C2)C1', 'phosphorylated FGFR3 (SEQ ID NO: 5, amino acids 449 to 759) (Homo sapiens (Human))', 'nM', 8),
  ('C=CC(=O)N1CC(C(=O)N2CCN(c3ccc(-c4cc(OC)c5c(C#N)cnn5c4)cn3)CC2)C1', 'phosphorylated FGFR3 (SEQ ID NO: 5, amino acids 449 to 759) (Homo sapiens (Human))', 'nM', 11),
  ('C=CC(=O)N1CCC(F)(C(=O)N2CCC(n3cc(-c4cc(OC)c5c(C#N)cnn5c4)cn3)CC2)CC1', 'phosphorylated FGFR3 (SEQ ID NO: 5, amino acids 449 to 759) (Homo sapiens (Human))', 'nM', 39),
  ('C=CC(=O)N1CC(C(=O)N2CCC(n3cc(-c4cc(OC)c5c(C#N)cnn5c4)cn3)CC2)C1', 'phosphorylated FGFR3 (SEQ ID NO: 5, amino acids 449 to 759) (Homo sapiens (Human))', 'nM', 4);
